Biological target: T1, extracellular domain of human BCMA (human, UniProt Q02223 1-54)
T1 construct: amine-linked to Octet AR2G tips; also called hsBCMA; BCMA (human)
T1 sequence: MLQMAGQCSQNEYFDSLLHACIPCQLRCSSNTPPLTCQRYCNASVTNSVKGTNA
Experiment: Octet BLI; Fab 200 nM
pKd: −log10 of the molar value.
Threshold rule: pKd greater than or equal to 8 is 1.0; below that, 0.0.

>>> assigned_class("AB200-(2Vk31)_R2-VH-v2 (Fab, V domains shown) VH: QVQLVQSGAEVKKPGSSVKVSCKASGGTFTNYWIHWVRQAPGQGLEWMGATYRSHSTTNYNQKFKSRVTITADKSTSTAYMELSSLRSEDTAVYYCARGAVYHGYDVIDNWGQGTLVTVSS VL: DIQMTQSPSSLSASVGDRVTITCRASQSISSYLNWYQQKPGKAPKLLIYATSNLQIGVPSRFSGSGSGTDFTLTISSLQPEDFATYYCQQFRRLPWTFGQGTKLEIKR")
0.0
>>> assigned_class("AB200-(2Vk31)_R2-CDR1-hs-v3 (Fab, V domains shown) VH: QVQLVQSGAEVKKPGSSVKVSCKASGGTFSSYAISWVRQAPGQGLEWMGATYRSQSDTYYNQKYKSRVTITADKSTSTAYMELSSLRSEDTAVYYCARGAVYHGYDVIDNWGQGTLVTVSS VL: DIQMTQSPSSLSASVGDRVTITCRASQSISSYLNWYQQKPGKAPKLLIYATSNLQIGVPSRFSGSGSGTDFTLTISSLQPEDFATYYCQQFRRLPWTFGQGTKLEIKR")
0.0
>>> assigned_class("AB200-(2Vk31)_R2-CDR2-hs-v3 (Fab, V domains shown) VH: QVQLVQSGAEVKKPGSSVKVSCKASGGTFTNYWIHWVRQAPGQGLEWMGGIIPIFGTANYAQKFQGRVTITADKSTSTAYMELSSLRSEDTAVYYCARGAVYHGYDVIDNWGQGTLVTVSS VL: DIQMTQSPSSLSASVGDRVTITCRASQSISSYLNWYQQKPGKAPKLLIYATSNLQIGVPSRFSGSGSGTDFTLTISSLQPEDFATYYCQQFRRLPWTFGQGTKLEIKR")
0.0
>>> assigned_class("AB200-(2Vk31)_R2-VH-v73 (Fab, V domains shown) VH: QVQLVQSGAEVKKPGSSVKVSCKASGGTFSNYWIHWVRQAPGQGLEWMGATYRIHSDTYYAQKYKSRVTITADKSTSTAYMELSSLRSEDTAVYYCARGAVYHGYDVIDNWGQGTLVTVSS VL: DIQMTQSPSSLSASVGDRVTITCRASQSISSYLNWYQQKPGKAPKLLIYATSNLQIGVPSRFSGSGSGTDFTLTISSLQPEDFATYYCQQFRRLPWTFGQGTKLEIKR")
1.0
>>> assigned_class("AB200-(2Vk31)_R2-CDR2-hs-v1 (Fab, V domains shown) VH: QVQLVQSGAEVKKPGSSVKVSCKASGGTFTNYWIHWVRQAPGQGLEWMGGIIPIFGTANYAQKFQGRVTITADKSTSTAYMELSSLRSEDTAVYYCARGAIFHGYDVIDNWGQGTLVTVSS VL: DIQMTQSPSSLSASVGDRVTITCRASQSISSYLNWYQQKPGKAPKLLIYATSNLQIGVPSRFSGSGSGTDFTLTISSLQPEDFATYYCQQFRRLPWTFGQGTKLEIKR")
0.0

Origin of measurements: patent US20240327535A1
